This collection of values is drawn from patent US20120276102A1.

Molecular target: T1, murine IL-21R extracellular domain His-Flag fusion protein (murine, UniProt Q9JHX3 20-237)
T1 construct: Biotinylated in the ELISAs; also called mIL-21R-H/F; murine IL-21R-H/F
Assay: SPR, Ab captured on anti-human IgG
measured-quantity: koff

Field: example entries. Status: answers known.
- AbQ (antibody, human IgG1, V domains shown, CDR3 graft, residue limits derived as for m29; also called VH3/VL2; VH3DM/VL2) VH: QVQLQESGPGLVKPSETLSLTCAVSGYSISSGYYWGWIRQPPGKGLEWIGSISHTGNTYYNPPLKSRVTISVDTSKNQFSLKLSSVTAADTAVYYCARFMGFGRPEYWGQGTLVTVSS VL: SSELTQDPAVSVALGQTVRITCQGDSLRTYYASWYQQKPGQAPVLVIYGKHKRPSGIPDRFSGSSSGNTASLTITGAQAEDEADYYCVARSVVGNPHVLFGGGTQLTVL: 0.0207 s⁻¹
- AbO (antibody, human IgG1, V domains shown, CDR3 graft, residue limits derived as for m29; also called VHP/VL16; VHPTM/VL16) VH: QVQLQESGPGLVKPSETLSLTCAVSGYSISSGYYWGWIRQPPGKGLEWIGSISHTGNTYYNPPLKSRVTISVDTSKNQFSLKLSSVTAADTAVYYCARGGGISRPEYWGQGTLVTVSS VL: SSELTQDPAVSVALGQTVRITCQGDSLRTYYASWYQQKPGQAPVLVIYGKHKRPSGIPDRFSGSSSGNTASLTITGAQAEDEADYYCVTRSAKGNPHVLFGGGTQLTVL: 0.00549 s⁻¹

# lookup: koff of AbU (antibody, human IgG1, V domains shown, CDR3 graft, residue limits derived as for m29; also called VHP/VL25; VHPTM/VL25) VH: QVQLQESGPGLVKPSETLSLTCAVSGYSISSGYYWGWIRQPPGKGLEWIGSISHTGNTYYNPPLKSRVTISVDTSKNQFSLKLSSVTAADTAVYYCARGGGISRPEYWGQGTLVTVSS VL: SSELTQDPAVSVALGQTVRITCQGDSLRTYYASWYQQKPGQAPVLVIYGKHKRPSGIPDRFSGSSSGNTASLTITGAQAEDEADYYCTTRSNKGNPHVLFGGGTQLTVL 0.00434 s⁻¹
